Sourced from ChEMBL document CHEMBL4002578

Test: Selectivity index, ratio of CC50 for human Caco2 cells to IC50 for human alpha-glucosidase expressed in Saccharomyces cerevisiae
Kindly state Ratio CC50/IC50 for each of the entries shown.

Asked: Would you mind telling me what Ratio CC50/IC50 value was observed for COC(=O)c1cc(O)cc(OC)c1Oc1c(Cl)c(C)c(Cl)c(O)c1C(=O)O [GEODIN HYDRATE] ?
Given back: >15

Asked: // query Ratio CC50/IC50 value for entry COC(=O)[C@@]1(O)OC(=O)C(Cc2ccc3c(c2)CCC(C)(C)O3)=C1c1ccc(O)cc1
Given back: 4.8

Asked: Give the measured Ratio CC50/IC50 of Cc1c(O)c(O)c(O)c(C=O)c1-c1cc2c(C=O)c(C)c(O)c(O)c2o1 .
Given back: >24

Asked: Need Ratio CC50/IC50 of COc1cc(O)cc(C(=O)O)c1Oc1cc(C)cc(O)c1C(=O)O , thanks.
Given back: >81

Asked: Which measured Ratio CC50/IC50 value corresponds to CC1(C)CCc2cc(CC3=C(c4ccc(O)cc4)[C@@](O)(C(=O)O)OC3=O)ccc2O1 ?
Given back: >8.5

----------
Assay: Selectivity index, ratio of CC50 for human Caco2 cells to IC50 for human alpha-glucosidase expressed in Saccharomyces cerevisiae
Please go through the items and note down their Ratio CC50/IC50.

Asked: Need Ratio CC50/IC50, item Cc1cc(O)c2c(c1)C(=O)c1cc(O)cc(O)c1C2=O [EMODIN]
Given back: >43

Asked: Name the recorded Ratio CC50/IC50 for CCOC(=O)[C@@]1(O)OC(=O)C(Cc2ccc3c(c2)CCC(C)(C)O3)=C1c1ccc(O)cc1 .
Given back: 12

Asked: Ratio CC50/IC50 for CC1(C)CCc2cc(CC3OC(=O)C(O)=C3c3ccc(O)cc3)ccc2O1 (stereo not given) ?
Given back: >24

Asked: Give its Ratio CC50/IC50 value. Item: COC(=O)c1cc(O)cc(OC)c1Oc1c(Cl)c(C)c(Cl)c(O)c1C(=O)OC [METYL DICHLOROASTERRATE]
Given back: >8.9

Asked: Report Ratio CC50/IC50 for COC(=O)[C@]1(Cc2ccc3c(c2)CCC(C)(C)O3)OC(=O)C(O)=C1c1ccc(O)cc1 please.
Given back: >22

----------
Assay: Inhibition of human alpha-glucosidase expressed in Saccharomyces cerevisiae using p-nitophenyl-alpha-glucopyranoside as substrate pretreated with substrate for 15 mins followed by enzyme addition measured after 15 mins
ENDPOINT LABEL: IC50 (µM)
// units = µM; emit number, no label

Asked: Data request, read-out IC50, for CC1(C)CCc2cc(CC3=C(c4ccc(O)cc4)[C@@](O)(C(=O)O)OC3=O)ccc2O1
Given back: 95

Asked: Given CC1(C)CCc2cc(CC3OC(=O)C(O)=C3c3ccc(O)cc3)ccc2O1 (stereo not drawn) , state its recorded IC50.
Given back: 34

----------
Test: Competitive inhibition of human alpha-glucosidase expressed in Saccharomyces cerevisiae using varying levels of p-nitophenyl-alpha-glucopyranoside as substrate pretreated with substrate for 15 mins followed by enzyme addition measured after 15 mins by Lineweaver-burk plot analysis
Mark Satisfied only for Ki values smaller than 2 µM; exact matches and larger values are Not satisfied.

Asked: Given COC(=O)c1cc(O)cc(OC)c1Oc1c(Cl)c(C)c(Cl)c(O)c1C(=O)O [GEODIN HYDRATE] , is recorded Ki strictly lower than 2 µM?
Given back: Not satisfied

Asked: Check if Ki falls below 2 µM for COc1cc(O)cc(C(=O)O)c1Oc1cc(C)cc(O)c1C(=O)O .
Given back: Satisfied

Asked: Is Ki of COC(=O)[C@@]1(O)OC(=O)C(Cc2ccc3c(c2)CCC(C)(C)O3)=C1c1ccc(O)cc1 strictly below 2 µM?
Given back: Not satisfied

Asked: Please determine if Cc1c(O)c(O)c(O)c(C=O)c1-c1cc2c(C=O)c(C)c(O)c(O)c2o1 is below 2 µM in terms of Ki.
Given back: Not satisfied

Asked: Does CCOC(=O)[C@@]1(O)OC(=O)C(Cc2ccc3c(c2)CCC(C)(C)O3)=C1c1ccc(O)cc1 have Ki strictly under 2 µM?
Given back: Not satisfied

Asked: Please indicate whether the reported Ki of CC1(C)CCc2cc(CC3=C(c4ccc(O)cc4)[C@@](O)(C(=O)O)OC3=O)ccc2O1 is strictly below 2 µM.
Given back: Not satisfied
